- TARGET DESC: cysteines in MDA-MB-231 and Ramos cells (Homo sapiens, UniProt Q86SX6)
- Sequence (Q86SX6 32-157): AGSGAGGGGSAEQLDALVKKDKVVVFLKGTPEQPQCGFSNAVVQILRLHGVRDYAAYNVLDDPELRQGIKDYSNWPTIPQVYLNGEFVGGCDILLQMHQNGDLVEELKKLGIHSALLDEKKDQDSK
- PROCEDURE SUMMARY: Competitive isoTOP-ABPP in situ (fragment-treated cells)
- Format: cell-based
- CONDITION LABEL: 200 μM, insitu, 231
REPORTED PROPERTY: isoTOP-ABPP ratio Q86SX6_C67

* Cc1ccc(C=C(C#N)C(=O)NCCN2CCOCC2)cc1 | 1.0
* O=C(CCl)NC12CC3CC(CC(C3)C1)C2 | 1.4
* CC1CCc2ccccc2N1C(=O)CCl (stereo not shown) | 9.1
* O=C(CCl)Nc1cccc2ncccc12 | 1.0

----------
- TARGET DESC: GNB2L1 C182 (P63244) (Homo sapiens)
- PROCEDURE SUMMARY: Competitive isoTOP-ABPP, cell lysates
- Format: binding
- CONDITION LABEL: 500 μm in-vitro ramos
isoTOP-ABPP ratio (reactivity profile), P63244_C182 overview
REPORTED PROPERTY: isoTOP-ABPP ratio (reactivity profile), P63244_C182

* CC(C)CCOCCNC(=O)CCl | 1.1
* C=CC(=O)N(Cc1cccnc1)c1ccc(Oc2ccccc2)c(C(F)(F)F)c1 | 1.3
* O=C(CCl)NC12CC3CC(CC(C3)C1)C2 | 0.9
* O=C(CCl)N1CCC(C(O)(c2ccccc2)c2ccccc2)CC1 | 1.1
* O=C(/C=C/c1ccccc1)Nc1cc(C(F)(F)F)cc(C(F)(F)F)c1 | 1.0

----------
- TARGET DESC: cysteines in MDA-MB-231 and Ramos cells (Homo sapiens, UniProt Q96AB3)
- Sequence (Q96AB3 1-205): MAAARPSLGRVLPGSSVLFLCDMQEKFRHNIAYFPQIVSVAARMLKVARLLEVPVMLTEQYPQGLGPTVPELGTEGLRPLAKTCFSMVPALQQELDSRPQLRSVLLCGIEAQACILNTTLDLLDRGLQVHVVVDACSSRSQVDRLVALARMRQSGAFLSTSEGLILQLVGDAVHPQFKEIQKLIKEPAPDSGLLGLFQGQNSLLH
- PROCEDURE SUMMARY: Competitive isoTOP-ABPP in situ (fragment-treated cells)
- Type: cell-based
- CONDITION LABEL: 200 μM, insitu, 231
REPORTED PROPERTY: isoTOP-ABPP ratio Q96AB3_C114

- CC1CCc2ccccc2N1C(=O)CCl (centres unmarked): 3.1
- O=C(CCl)NC(=O)NC12CC3CC(CC(C3)C1)C2: 1.6
- O=C(CCl)NC12CC3CC(CC(C3)C1)C2: 4.9
- C=CC(=O)N(Cc1cccnc1)c1cc(C(F)(F)F)cc(C(F)(F)F)c1: 0.7
- COc1ccccc1OCCNC(=O)CCl: 0.8
- Cc1ccc(C=C(C#N)C(=O)NCCN2CCOCC2)cc1: 0.7
- O=C(CCl)Nc1cccc2ncccc12: 0.8
- C=CC(=O)Nc1cc(F)c(N2CCN(C(=O)OC(C)(C)C)CC2)c(F)c1: 1.2
- CC(C)CCOCCNC(=O)CCl: 1.0
- O=C(CCl)N1CCN(S(=O)(=O)c2ccccc2F)CC1: 20.0
- O=C(CCl)NCCc1c[nH]c2ccccc12: 2.4

----------
This section presents molecules with their documented isoTOP-ABPP ratio (reactivity profile), P09211_C48 values.
- TARGET DESC: UniProt P09211
- Sequence (P09211 whole entry): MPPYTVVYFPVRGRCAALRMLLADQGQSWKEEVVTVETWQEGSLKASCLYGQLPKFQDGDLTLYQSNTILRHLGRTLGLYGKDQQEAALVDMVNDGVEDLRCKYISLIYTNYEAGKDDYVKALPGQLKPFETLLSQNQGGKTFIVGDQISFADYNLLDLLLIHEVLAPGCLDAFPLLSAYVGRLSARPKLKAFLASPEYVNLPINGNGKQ
- PROCEDURE SUMMARY: Competitive isoTOP-ABPP, cell lysates
- Assay type: binding
- CONDITION LABEL: 500 μm in-vitro ramos
- Description: TEV digests were pressure loaded onto a 250 μm (inner diameter) fused silica capillary column packed with C18 resin (Aqua 5 μm, Phenomenex). The samples were analyzed by multidimensional liquid chromatography tandem mass spectrometry (MudPIT), using an LTQ-Velos Orbitrap mass spectrometer (Thermo Scientific) coupled to an Agilent 1200-series quaternary pump. […]
REPORTED PROPERTY: isoTOP-ABPP ratio (reactivity profile), P09211_C48

• C=CC(=O)N(Cc1cccnc1)c1ccc(Oc2ccccc2)c(C(F)(F)F)c1 [compound 15] = 1.3
• CC(Br)C(=O)Nc1cc(C(F)(F)F)cc(C(F)(F)F)c1 (centres unmarked) [compound 24] = 1.6
• O=C(CCl)NC12CC3CC(CC(C3)C1)C2 [compound 21] = 1.3
• COc1ccccc1OCCNC(=O)CCl [compound 28] = 1.5
• O=C(CCl)N1CCN(CC(=O)N2CCOCC2)CC1 [compound 29] = 0.4
• CCN(CC)c1ccc(S(N)(=O)=O)cc1NC(=O)CCl [compound 30] = 1.4
• O=C(CCl)N1CCOCC1 [compound 22] = 0.7
• CC(C)CCOCCNC(=O)CCl [compound 27] = 1.0
• N#C/C(=C\c1cc(C(F)(F)F)cc(C(F)(F)F)c1)C(N)=O [compound 23] = 0.9
• O=C(/C=C/c1ccccc1)Nc1cc(C(F)(F)F)cc(C(F)(F)F)c1 [compound 26] = 0.9
• O=C(CCl)N1CCC(C(O)(c2ccccc2)c2ccccc2)CC1 [compound 20] = 1.1
